test: Apparent permeability from apical to basolateral side in human Caco-2 cell membrane at 10 uM
Mark MET only for Papp A→B at 10 µM values smaller than 0.2 ×10⁻⁶ cm/s; exact matches and larger values are NOT MET.

- compound: "CC(C)(C)CCN1C(=O)C(C2=NS(=O)(=O)c3cc(NS(C)(=O)=O)ccc3N2)=C(O)C2(C)CCCN12 (stereo unspecified)"
  cat: "NOT MET"
- compound: "CC(C)(C)CCN1C(=O)C(C2=NS(=O)(=O)c3cc(NS(C)(=O)=O)ccc3N2)=C(O)C2CCCN21 (stereo unspecified)"
  cat: "NOT MET"
- compound: "CS(=O)(=O)Nc1ccc2c(c1)S(=O)(=O)N=C(C1=C(O)C3CCCCN3N(Cc3ccc(F)cc3)C1=O)N2 (stereo unspecified)"
  cat: "MET"

Pending compound:
Q: Is the reported Papp A→B at 10 µM for CC(C)(C)CCN1C(=O)C(C2=NS(=O)(=O)c3cc(NS(C)(=O)=O)ccc3N2)=C(O)C2CCCCN21 (stereo unspecified) strictly below 0.2 ×10⁻⁶ cm/s?
Ans: NOT MET
